These data points were gathered from patent US20170253607A1.

Target: HIV-1 PR (Human immunodeficiency virus type 1 group M subtype B, UniProt P04585)
Assay: HIV-protease inhibitory activity assay (FRET peptide substrate)
Format: biochemical
Details: Test Example 1
endpoint label: IC50

| compound | measurement target | endpoint label | value reported |
| --- | --- | --- | --- |
| COc1ccc(S(=O)(=O)N(CC(C)C)CC(O)C(Cc2ccc(Oc3ccc(C(=O)O)c(-c4ccc(F)cc4F)c3)cc2)NC(=O)OC2COC3(C)OCCC23)cc1 (stereo not drawn) [Compound I-155] | HIV-1 PR (Human immunodeficiency virus type 1 group M subtype B, UniProt P04585) | IC50 | 1.37 nM |
| CC(C)CN(CC(O)C(Cc1ccc(OCc2ccc(-c3ccc(F)cc3F)cc2O)cc1)NC(=O)OC1COC2OCCC12)S(=O)(=O)c1ccc2ncsc2c1 (stereo not drawn) [Compound I-813] | HIV-1 PR (Human immunodeficiency virus type 1 group M subtype B, UniProt P04585) | IC50 | 1.06 nM |
| COc1ccc(S(=O)(=O)N(CC(C)C)CC(O)C(Cc2ccc(N3CCC(Oc4cccc(-c5sc6c(c5C(=O)O)CC(C)(C)CC6)c4C)C3)cc2)NC(=O)OC2COC3(C)OCCC23)cc1 (stereo not drawn) [Compound I-597] | HIV-1 PR (Human immunodeficiency virus type 1 group M subtype B, UniProt P04585) | IC50 | 7.37 nM |
